target: wt BfrB (Pseudomonas aeruginosa bacterioferritin B, 24-mer) (Pseudomonas aeruginosa, UniProt Q9HY79 1-158)
assay: ITC
quantity kind: Kd (µM)
Answers are plain numbers, in µM.

Input line: // Kd lookup, key: wt Bfd (C43S mutant of P. aeruginosa bacterioferritin-associated ferredoxin) (natural protein, Pseudomonas aeruginosa) MYVCLCQGVTDNQIRDAIYEGCCSYREVREATGVGTQCGKCASLAKQVVRETLNDLQSAQPVPAFGTTAFVAA
Output line: 4.2
